# System: Calf thymus DNA
# assaySummary: Binding affinity to calf thymus DNA assessed as change in melting temperature at 5 uM by spectrophotometer analysis
# Format: nucleic-acid assay
# measurementContext: Bos taurus
measuredMetric: ΔTm (°C)
Answers are plain numbers, in °C.

COc1cccc2c1C(=O)c1c(O)c3c(c(O)c1C2=O)C[C@@](O)(C(=O)CO)C[C@@H]3O[C@H]1C[C@H](N)[C@H](O)[C@H](C)O1.Cl [DOXORUBICIN HYDROCHLORIDE]    13.4
CCc1ccc(C(=O)N/N=C(\C)[C@]2(O)Cc3c(O)c4c(c(O)c3[C@@H](O[C@H]3C[C@H](N)[C@H](O)[C@H](C)O3)C2)C(=O)c2c(OC)cccc2C4=O)cc1.Cl    10.5
COc1cccc2c1C(=O)c1c(O)c3c(c(O)c1C2=O)C[C@@](O)(/C(C)=N/NC(=O)c1cccc([N+](=O)[O-])c1)C[C@@H]3O[C@H]1C[C@H](N)[C@H](O)[C@H](C)O1.Cl    10.5
COc1ccc(C(=O)N/N=C(\C)[C@]2(O)Cc3c(O)c4c(c(O)c3[C@@H](O[C@H]3C[C@H](N)[C@H](O)[C@H](C)O3)C2)C(=O)c2c(OC)cccc2C4=O)cc1.Cl    10.9
COc1cccc2c1C(=O)c1c(O)c3c(c(O)c1C2=O)C[C@@](O)(/C(CO)=N/NC(=O)c1ccccc1)C[C@@H]3O[C@H]1C[C@H](N)[C@H](O)[C@H](C)O1.Cl    8.9
COc1cccc2c1C(=O)c1c(O)c3c(c(O)c1C2=O)C[C@@](O)(/C(C)=N/NC(=O)c1ccc(Cl)cc1)C[C@@H]3O[C@H]1C[C@H](N)[C@H](O)[C@H](C)O1.Cl    11.4
COc1cccc2c1C(=O)c1c(O)c3c(c(O)c1C2=O)C[C@@](O)(/C(CO)=N/NC(=O)c1ccc(Cl)c(Cl)c1)C[C@@H]3O[C@H]1C[C@H](N)[C@H](O)[C@H](C)O1.Cl    5.3
COc1cccc2c1C(=O)c1c(O)c3c(c(O)c1C2=O)C[C@@](O)(/C(C)=N/NC(=O)c1ccc(Cl)c(Cl)c1)C[C@@H]3O[C@H]1C[C@H](N)[C@H](O)[C@H](C)O1.Cl    11
COc1cccc2c1C(=O)c1c(O)c3c(c(O)c1C2=O)C[C@@](O)(/C(C)=N/NC(=O)c1ccccc1)C[C@@H]3O[C@H]1C[C@H](N)[C@H](O)[C@H](C)O1.Cl [ZORUBICIN HYDROCHLORIDE]    11.7
COc1cccc2c1C(=O)c1c(O)c3c(c(O)c1C2=O)C[C@@](O)(/C(C)=N/NC(=O)c1ccc(-c2ccccc2)cc1)C[C@@H]3O[C@H]1C[C@H](N)[C@H](O)[C@H](C)O1.Cl    10.3

Could I get ΔTm for every one of these entries?
1. COc1cccc2c1C(=O)c1c(O)c3c(c(O)c1C2=O)C[C@@](O)(/C(C)=N/NC(=O)c1ccc(N(C)C)cc1)C[C@@H]3O[C@H]1C[C@H](N)[C@H](O)[C@H](C)O1.Cl
2. COc1cccc2c1C(=O)c1c(O)c3c(c(O)c1C2=O)C[C@@](O)(/C(C)=N/NC(=O)c1ccc(O)cc1)C[C@@H]3O[C@H]1C[C@H](N)[C@H](O)[C@H](C)O1.Cl
3. CCCCOc1ccc(C(=O)N/N=C(\C)[C@]2(O)Cc3c(O)c4c(c(O)c3[C@@H](O[C@H]3C[C@H](N)[C@H](O)[C@H](C)O3)C2)C(=O)c2c(OC)cccc2C4=O)cc1.Cl

RESULT:
10.7
11.5
10.2

###

# Species on record: Rattus norvegicus
# assaySummary: Cardiotoxicity in rat ECG model
# measurementContext: in vivo
So I've got a bunch of compounds here, and I need their MCCD values.
Give bare numbers, in mg/kg.

Look over these answered cases.
COc1cccc2c1C(=O)c1c(O)c3c(c(O)c1C2=O)C[C@@](O)(/C(C)=N/NC(=O)c1ccc(Cl)c(Cl)c1)C[C@@H]3O[C@H]1C[C@H](N)[C@H](O)[C@H](C)O1.Cl    40
COc1cccc2c1C(=O)c1c(O)c3c(c(O)c1C2=O)C[C@@](O)(/C(CO)=N/NC(=O)c1ccccc1)C[C@@H]3O[C@H]1C[C@H](N)[C@H](O)[C@H](C)O1.Cl    32

Could I get MCCD for every one of these entries?
1. COc1cccc2c1C(=O)c1c(O)c3c(c(O)c1C2=O)C[C@@](O)(/C(C)=N/NC(=O)c1ccccc1)C[C@@H]3O[C@H]1C[C@H](N)[C@H](O)[C@H](C)O1.Cl [ZORUBICIN HYDROCHLORIDE]
2. COc1cccc2c1C(=O)c1c(O)c3c(c(O)c1C2=O)C[C@@](O)(/C(C)=N/NC(=O)c1ccc(Cl)cc1)C[C@@H]3O[C@H]1C[C@H](N)[C@H](O)[C@H](C)O1.Cl
3. COc1cccc2c1C(=O)c1c(O)c3c(c(O)c1C2=O)C[C@@](O)(/C(C)=N/NC(=O)c1ccc(O)cc1)C[C@@H]3O[C@H]1C[C@H](N)[C@H](O)[C@H](C)O1.Cl

RESULT:
24
48
20

###

# Tested on: P388
# assaySummary: In vivo antitumor activity against mouse P388 cells allografted in BDF/CDF mouse assessed as host survival time at 4 mg/kg, ip administered on days 1 to 9 relative to control
# Type: functional
# measurementContext: route intraperitoneal
measuredMetric: T/C (%)
Numbers only, in %.

Look over these answered cases.
COc1cccc2c1C(=O)c1c(O)c3c(c(O)c1C2=O)C[C@@](O)(/C(CO)=N/NC(=O)c1ccc(Cl)c(Cl)c1)C[C@@H]3O[C@H]1C[C@H](N)[C@H](O)[C@H](C)O1.Cl    202
CCc1ccc(C(=O)N/N=C(\C)[C@]2(O)Cc3c(O)c4c(c(O)c3[C@@H](O[C@H]3C[C@H](N)[C@H](O)[C@H](C)O3)C2)C(=O)c2c(OC)cccc2C4=O)cc1.Cl    175
COc1cccc2c1C(=O)c1c(O)c3c(c(O)c1C2=O)C[C@@](O)(C(=O)CO)C[C@@H]3O[C@H]1C[C@H](N)[C@H](O)[C@H](C)O1.Cl [DOXORUBICIN HYDROCHLORIDE]    77
COc1cccc2c1C(=O)c1c(O)c3c(c(O)c1C2=O)C[C@@](O)(C(C)=O)C[C@@H]3O[C@H]1C[C@H](N)[C@H](O)[C@H](C)O1 [DAUNORUBICIN]    83

Could I get T/C for every one of these entries?
1. COc1cccc2c1C(=O)c1c(O)c3c(c(O)c1C2=O)C[C@@](O)(/C(C)=N/NC(=O)c1cccc([N+](=O)[O-])c1)C[C@@H]3O[C@H]1C[C@H](N)[C@H](O)[C@H](C)O1.Cl
2. COc1cccc2c1C(=O)c1c(O)c3c(c(O)c1C2=O)C[C@@](O)(/C(C)=N/NC(=O)c1ccc(O)cc1)C[C@@H]3O[C@H]1C[C@H](N)[C@H](O)[C@H](C)O1.Cl
3. CCCCOc1ccc(C(=O)N/N=C(\C)[C@]2(O)Cc3c(O)c4c(c(O)c3[C@@H](O[C@H]3C[C@H](N)[C@H](O)[C@H](C)O3)C2)C(=O)c2c(OC)cccc2C4=O)cc1.Cl

RESULT:
1: 190; 2: 161; 3: 127

###

So I've got a bunch of compounds here, and I need their Ratio values.
# Organism: Rattus norvegicus
# assaySummary: Cardiotoxicity in rat ECG model relative to adriamycin
# measurementContext: in vivo
Give bare numbers.

Could I get Ratio for every one of these entries?
1. COc1cccc2c1C(=O)c1c(O)c3c(c(O)c1C2=O)C[C@@](O)(/C(C)=N/NC(=O)c1ccc(N(C)C)cc1)C[C@@H]3O[C@H]1C[C@H](N)[C@H](O)[C@H](C)O1.Cl
2. COc1cccc2c1C(=O)c1c(O)c3c(c(O)c1C2=O)C[C@@](O)(/C(C)=N/NC(=O)c1cccc([N+](=O)[O-])c1)C[C@@H]3O[C@H]1C[C@H](N)[C@H](O)[C@H](C)O1.Cl
3. COc1cccc2c1C(=O)c1c(O)c3c(c(O)c1C2=O)C[C@@](O)(C(=O)CO)C[C@@H]3O[C@H]1C[C@H](N)[C@H](O)[C@H](C)O1.Cl [DOXORUBICIN HYDROCHLORIDE]
4. COc1cccc2c1C(=O)c1c(O)c3c(c(O)c1C2=O)C[C@@](O)(/C(C)=N/NC(=O)c1ccc(O)cc1)C[C@@H]3O[C@H]1C[C@H](N)[C@H](O)[C@H](C)O1.Cl

RESULT:
0.8
2.3
1
1.5

###

# assaySummary: Half life in 0.01 M phosphate buffer at 10 uM at pH 7.4 at 50 degC
# Assay type: physicochemical
measuredMetric: half-life at 10 µM (min)
Answers are plain numbers, in min.

COc1cccc2c1C(=O)c1c(O)c3c(c(O)c1C2=O)C[C@@](O)(/C(C)=N/NC(=O)c1ccccc1)C[C@@H]3O[C@H]1C[C@H](N)[C@H](O)[C@H](C)O1.Cl [ZORUBICIN HYDROCHLORIDE]    324
COc1cccc2c1C(=O)c1c(O)c3c(c(O)c1C2=O)C[C@@](O)(/C(C)=N/NC(=O)c1ccc(Cl)cc1)C[C@@H]3O[C@H]1C[C@H](N)[C@H](O)[C@H](C)O1.Cl    37

Consider the record given below.
QUERY: Which half-life at 10 µM is listed for `COc1cccc2c1C(=O)c1c(O)c3c(c(O)c1C2=O)C[C@@](O)(/C(C)=N/NC(=O)c1ccc(N(C)C)cc1)C[C@@H]3O[C@H]1C[C@H](N)[C@H](O)[C@H](C)O1.Cl` ?
RESULT: 554
